# TARGET_DESC: CBP (Homo sapiens, UniProt Q92793)
# Construct: the catalytic domain of human CBP, PCAF, p300 and GCN5 (Enzo Life Sci., USA) can be used
# Sequence (Q92793 1323-1700 limits assumed): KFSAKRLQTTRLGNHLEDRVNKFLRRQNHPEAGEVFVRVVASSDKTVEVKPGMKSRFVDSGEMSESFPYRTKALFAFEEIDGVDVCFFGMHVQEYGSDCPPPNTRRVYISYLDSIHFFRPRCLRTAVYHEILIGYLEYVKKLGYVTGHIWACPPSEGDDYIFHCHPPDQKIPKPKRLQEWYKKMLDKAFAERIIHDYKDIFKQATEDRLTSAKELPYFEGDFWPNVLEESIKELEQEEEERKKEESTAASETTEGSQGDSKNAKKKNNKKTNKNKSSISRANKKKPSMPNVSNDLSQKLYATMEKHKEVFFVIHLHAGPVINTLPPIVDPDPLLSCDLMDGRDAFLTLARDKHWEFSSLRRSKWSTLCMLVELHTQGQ
# TEST_PROTOCOL: acetyltransferase activity assay (Enzo Life Sciences), CBP
# CONDITION_CONTEXT: histone 3 acetyl acceptor, acetyl-CoA, room temperature
ASSAY_READOUT: EC50 (nM)

1. CCOc1cccc(OCCN(C)C)c1C(=O)Nc1ccc(Cl)c(C(F)(F)F)c1 [Compound D] ... 4.5

* * *

# TARGET_DESC: p300 (Homo sapiens, UniProt Q09472)
# Construct: the catalytic domain of human CBP, PCAF, p300 and GCN5 (Enzo Life Sci., USA) can be used
# Sequence (Q09472 1287-1663 limits assumed): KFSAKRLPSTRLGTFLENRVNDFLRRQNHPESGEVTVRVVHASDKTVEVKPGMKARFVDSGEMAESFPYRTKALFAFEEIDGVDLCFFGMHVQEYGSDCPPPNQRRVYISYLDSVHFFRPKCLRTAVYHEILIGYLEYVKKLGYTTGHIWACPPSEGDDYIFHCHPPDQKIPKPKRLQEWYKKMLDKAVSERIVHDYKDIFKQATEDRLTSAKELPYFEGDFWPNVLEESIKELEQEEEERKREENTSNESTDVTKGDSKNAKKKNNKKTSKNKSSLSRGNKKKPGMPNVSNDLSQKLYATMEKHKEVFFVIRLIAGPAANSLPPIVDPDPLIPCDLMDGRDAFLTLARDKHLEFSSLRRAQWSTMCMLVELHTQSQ
# TEST_PROTOCOL: acetyltransferase activity assay (Enzo Life Sciences), P300
# CONDITION_CONTEXT: Table 1; activation of P300 according to b440
ASSAY_READOUT: EC50 (nM)

1) CCOc1cccc(OCCN2CCN(C)CC2)c1C(=O)Nc1ccc(Cl)c(C(F)(F)F)c1 ... 2.28
2) CCOc1cccc(OCCN2CCOCC2)c1C(=O)Nc1ccc(Cl)c(C(F)(F)F)c1 ... 2.07
3) CCOc1ccc(C(=O)Nc2ccc(Cl)c(C(F)(F)F)c2)c(OCCN(C)C)c1 ... 1.85
4) CCOc1cccc(OCCN2CCNCC2)c1C(=O)Nc1ccc(Cl)c(C(F)(F)F)c1 ... 2.1
5) CCOc1cccc(OCCN(CC)CC)c1C(=O)Nc1ccc(Cl)c(C(F)(F)F)c1 ... 1.47
6) CCOc1ccc(OCCN(C)C)c(C(=O)Nc2ccc(Cl)c(C(F)(F)F)c2)c1 ... 2.3
7) CCOc1cccc(OCCCN(C)C)c1C(=O)Nc1ccc(Cl)c(C(F)(F)F)c1 ... 1.32
8) CCOc1cccc(OCCN(C)C)c1C(=O)NCc1ccc(Cl)c(C(F)(F)F)c1 ... 1.84
9) CCOc1cccc(OCCN(C)C)c1C(=O)Nc1ccc(Cl)c(C(F)(F)F)c1 ... 3.81
10) CCOc1cccc(OCCN2CCCCC2)c1C(=O)Nc1ccc(Cl)c(C(F)(F)F)c1 ... 2.75
